assay-procedure: Pharmacokinetics of PEGylated protease inhibitor prodrugs in rats
Assay type: in vivo, male Sprague-Dawley rats
assay-context: prodrug in plasma, 24 hr
observation-type: Cmin(24 hr) (ng/mL)
# output: bare number, implied unit ng/mL

{"compound": "COCCOCCOCCOCCOCCOC(=O)NC(C(=O)NC(Cc1ccccc1)C(CN(Cc1ccc(-c2ccccn2)cc1)NC(=O)C(NC(=O)OC)C(C)(C)C)OCOC)C(C)(C)C (stereo not drawn)", "Cmin(24 hr), ng/mL": 6.61}
{"compound": "CCOCO[C@@H](CN(Cc1ccc(-c2ccccn2)cc1)NC(=O)[C@@H](NC(=O)OC)C(C)(C)C)[C@H](Cc1ccccc1)NC(=O)[C@@H](NC(=O)OCCOCCOCCOC)C(C)(C)C", "Cmin(24 hr), ng/mL": 0.797}

Request: Return Cmin(24 hr) (reported value) for this compound: COCCOCCOCCOC(=O)NC(C(=O)NC(Cc1ccccc1)C(CN(Cc1ccc(-c2ccccn2)cc1)NC(=O)C(NC(=O)OC)C(C)(C)C)OC(=O)CCCC(=O)O)C(C)(C)C (stereo not drawn)
Response: 2.68

Request: Return Cmin(24 hr) (reported value) for this compound: CCOC(C)OC(CN(Cc1ccc(-c2ccccn2)cc1)NC(=O)C(NC(=O)OC)C(C)(C)C)C(Cc1ccccc1)NC(=O)C(NC(=O)OCCOCCOCCOC)C(C)(C)C (mixture of isomers)
Response: 0.370

###

Tested on: CEM-SS cells
Assay type: cell-based
Protocol: To evaluate whether the protease inhibitors described herein retain the ability to protect against HIV-1 infection, CEM-SS cells infected with the RF strain of HIV-1 were treated with test compounds for six days, and then cell viability was monitored using the tetrazolium dye XTT. […] A value for Therapeutic Index (TI) was calculated as TC50/EC50.
observation-type: CC50 (µM)
# output: bare number, implied unit µM

Example cases with answers are listed next.
{"compound": "CCCCCCCCCCCCCCCCOCC(COP(=O)(O)OC(CN(Cc1ccc(-c2ccccn2)cc1)NC(=O)C(NC(=O)OC)C(C)(C)C)C(Cc1ccccc1)NC(=O)C(NC(=O)OCCOCCOCCOC)C(C)(C)C)OC (stereo not drawn)", "value": 14.2}
{"compound": "CCCCCCCCCCCCCCCCOCC(COP(=O)(O)OC(CN(Cc1ccc(-c2ccccn2)cc1)NC(=O)C(NC(=O)OC)C(C)(C)C)C(Cc1ccccc1)NC(=O)C(NC(=O)OCCOCCOCCOCCOCCOCCOC)C(C)(C)C)OC (stereo not drawn)", "value": 12.6}

Request: Return CC50 (reported value) for this compound: CCCCCCCCCCCCCCCCOCC(COP(=O)(O)OC(CN(Cc1ccc(-c2ccccn2)cc1)NC(=O)C(NC(=O)OC)C(C)(C)C)C(Cc1ccccc1)NC(=O)C(NC(=O)OCCOCCOCCOCCOCCOC)C(C)(C)C)OC (stereo not drawn)
Response: 12

###

assay-procedure: Pharmacokinetics of PEGylated protease inhibitor prodrugs in rats
Type: in vivo, male Sprague-Dawley rats
assay-context: prodrug in plasma
Listing: MRTlast of selected compounds
# output: bare number, implied unit h

{"compound": "COCCOCCOCCOCCOCCOC(=O)N[C@H](C(=O)N[C@@H](Cc1ccccc1)[C@H](CN(Cc1ccc(-c2ccccn2)cc1)NC(=O)[C@@H](NC(=O)OC)C(C)(C)C)OC(=O)[C@H](Cc1ccccc1)NC(=O)[C@@H](N)Cc1ccccc1)C(C)(C)C.Cl [Phe-Phe-mPEG5-Atazanavir HCl, Phe-Phe-mPEG5-atazanavir hydrochloride]", "observation-type": "MRTlast", "measure-unit": "h", "value": 1.49}

Request: Return MRTlast (reported value) for this compound: COCCOCCOCCOC(=O)NC(C(=O)NC(Cc1ccccc1)C(CN(Cc1ccc(-c2ccccn2)cc1)NC(=O)C(NC(=O)OC)C(C)(C)C)OC(=O)C(N)CC(C)C)C(C)(C)C.Cl (stereo not shown)
Response: 2.73

Request: Return MRTlast (reported value) for this compound: `COCCOCCOCCOC(=O)N[C@H](C(=O)N[C@@H](Cc1ccccc1)[C@H](CN(Cc1ccc(-c2ccccn2)cc1)NC(=O)[C@@H](NC(=O)OC)C(C)(C)C)OCOC)C(C)(C)C`
Response: 3.00

Request: Return MRTlast (reported value) for this compound: COCCOCCOCCOCCOCCOCCOC(=O)NC(C(=O)NC(Cc1ccccc1)C(CN(Cc1ccc(-c2ccccn2)cc1)NC(=O)C(NC(=O)OC)C(C)(C)C)OC(=O)COCCOC(=O)C(N)Cc1ccccc1)C(C)(C)C.Cl (stereo not shown) [mPEG6-Atazanavir-CME-phenylalanine HCl]
Response: 0.948

Request: Return MRTlast (reported value) for this compound: COCCOCCOCCOC(=O)NC(C(=O)NC(Cc1ccccc1)C(CN(Cc1ccc(-c2ccccn2)cc1)NC(=O)C(NC(=O)OC)C(C)(C)C)OC(=O)COCCOC(=O)C(N)Cc1ccccc1)C(C)(C)C.Cl (stereo not shown) [mPEG3-Atazanavir-CME-phenylalanine HCl, mPEG3-atazanavir-CME-phenylalanine]
Response: 2.36

Request: Return MRTlast (reported value) for this compound: COCCOCCOCCOCCOCCOC(=O)NC(C(=O)NC(Cc1ccccc1)C(CN(Cc1ccc(-c2ccccn2)cc1)NC(=O)C(NC(=O)OC)C(C)(C)C)OC(=O)COCCOC(=O)C(N)CC(C)C)C(C)(C)C.Cl (stereo not shown) [mPEG5-Atazanavir-CME-Leucine HCl, mPEG5-Atazanavir-CME-Leucine]
Response: 0.250

Request: Return MRTlast (reported value) for this compound: CCOC(=O)O[C@@H](CN(Cc1ccc(-c2ccccn2)cc1)NC(=O)[C@@H](NC(=O)OC)C(C)(C)C)[C@H](Cc1ccccc1)NC(=O)[C@@H](NC(=O)OCCOCCOCCOCCOCCOC)C(C)(C)C.Cl [mPEG5-Atazanavir - Ethyl Carbonate HCl, mPEG5-Atazanavir Ethyl Carbonate]
Response: 2.6
